assay: Stability in pH 1 buffer assessed as compound remaining at 21 hrs; assay type: physicochemical; conditions: read-out: Stability
property_name: remaining at 21 h (%)
Give bare numbers, in %.

Recorded remaining at 21 h (compound CCOc1cc(OC(C)C)c(F)c(C(Nc2ccc(C(=N)N)cc2)c2nc(-c3ccccc3)co2)c1 (stereo unspecified) ): 96

====

molecular target: Trypsin (Homo sapiens, UniProt P07477+P07478+P35030); assay: Inhibition of trypsin (unknown origin); format: protein assay
Please respond with reported Ki for every item in the list.
Give bare numbers, in nM.

Known results for molecules:
molecule | Ki (nM)
CCOc1cc(OC(C)C)c(F)c(C(Nc2ccc(C(=N)N)cc2)c2nc(-c3ccccc3C(C)=O)c[nH]2)c1 (stereo not given) | 560
CCOc1cc(OC(C)C)c(F)c(C(Nc2ccc(C(=N)N)cc2)c2nc(-c3ccc(C)cc3)c[nH]2)c1 (stereo not given) | 610
CCOc1cc(OC(C)C)c(F)c(C(Nc2ccc(C(=N)N)cc2)c2nc(-c3cccc(C)c3)c[nH]2)c1 (stereo not given) | 500
CCOc1cc(OC(C)C)c(F)c(C(Nc2ccc(C(=N)N)cc2)c2nc(-c3ccccc3OC)c[nH]2)c1 (stereo not given) | 430

Continue with the molecule presented below.
Recorded Ki (molecule CCOc1cc(OC(C)C)c(F)c(C(Nc2ccc(C(=N)N)cc2)c2nc(-c3cccc(OC)c3)c[nH]2)c1 (stereo not given) ): 580
